experiment_summary: Metabolic stability in human liver assessed as intrinsic clearance at 1 uM measured up to 30 mins by LC-MS/MS analysis
Type: ADME, tissue-based
condition_label: read-out: CLH
Can you tell me CLint scaled at 1 µM for the items I'm about to list?
Numbers only, in mL/min/kg.

C=C[C@]1(C)C[C@@H](OC(=O)Cn2cc(-c3ccc(CNc4cc(N)ncn4)cc3)nn2)[C@]2(C)[C@H](C)CC[C@]3(CCC(=O)[C@H]32)[C@@H](C)[C@@H]1O
4810
C=C[C@]1(C)C[C@@H](OC(=O)Cn2cc(-c3ccc(C(=O)c4ccc5c(N)ncnn45)cn3)nn2)[C@]2(C)[C@H](C)CC[C@]3(CCC(=O)[C@H]32)[C@@H](C)[C@@H]1O
3680
C=C[C@]1(C)C[C@@H](OC(=O)Cn2cc(-c3cncc(C(=O)Nc4ccc(OC)nc4)c3)nn2)[C@]2(C)[C@H](C)CC[C@]3(CCC(=O)[C@H]32)[C@@H](C)[C@@H]1O
2740
C=C[C@]1(C)C[C@@H](OC(=O)Cn2cc(-c3cncc(NC(=O)c4cnc(OC)cn4)c3)nn2)[C@]2(C)[C@H](C)CC[C@]3(CCC(=O)[C@H]32)[C@@H](C)[C@@H]1O
1090
C=C[C@]1(C)C[C@@H](OC(=O)Cn2cc(-c3cncc(NC(=O)c4ccc(OC)cc4)c3)nn2)[C@]2(C)[C@H](C)CC[C@]3(CCC(=O)[C@H]32)[C@@H](C)[C@@H]1O
3650

Please supply CLint scaled at 1 µM for each of the following items, keeping them in order.
1. C=C[C@]1(C)C[C@@H](OC(=O)Cn2cc(-c3cncc(NC(=O)c4ccc(OC)nc4)c3)nn2)[C@]2(C)[C@H](C)CC[C@]3(CCC(=O)[C@H]32)[C@@H](C)[C@@H]1O
2. C=C[C@]1(C)C[C@@H](OC(=O)Cn2cc(-c3ccc(Cn4ccnc4)nc3)nn2)[C@]2(C)[C@H](C)CC[C@]3(CCC(=O)[C@H]32)[C@@H](C)[C@@H]1O

[2560, 1000]

Please supply CLint scaled at 1 µM for each of the following items, keeping them in order.
1. C=C[C@]1(C)C[C@@H](OC(=O)Cn2cc(-c3cccc(Nc4ncnc5[nH]cnc45)c3)nn2)[C@]2(C)[C@H](C)CC[C@]3(CCC(=O)[C@H]32)[C@@H](C)[C@@H]1O
2. C=C[C@]1(C)C[C@@H](OC(=O)Cn2cc(-c3cncc(C(O)c4ccc5c(N)ncnn45)c3)nn2)[C@]2(C)[C@H](C)CC[C@]3(CCC(=O)[C@H]32)[C@@H](C)[C@@H]1O (stereo not given in full)

1: 3140; 2: 1150
